# Target Entity: GNRHR (Homo sapiens)
# Construct: purchased Promega (in-house HiBiT-GPCR construct library, NanoBRET)
# Sequence (P30968 whole entry): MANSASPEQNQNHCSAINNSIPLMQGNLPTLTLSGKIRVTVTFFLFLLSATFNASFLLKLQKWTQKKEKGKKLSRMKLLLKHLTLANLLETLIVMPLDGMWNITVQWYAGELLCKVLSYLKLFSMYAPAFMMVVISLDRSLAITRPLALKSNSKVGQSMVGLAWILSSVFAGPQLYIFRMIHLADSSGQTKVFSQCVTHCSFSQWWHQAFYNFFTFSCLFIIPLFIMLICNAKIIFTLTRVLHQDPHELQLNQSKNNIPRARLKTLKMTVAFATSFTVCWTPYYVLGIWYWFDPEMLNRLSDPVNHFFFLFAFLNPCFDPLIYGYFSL
# Protocol Text: NanoBRET screen HiBiT-GNRHR in HEK293
# Assay type: binding
# Cond: GNRHR; tracer 0.1μM
Cut-off 1 on NanoBRET Fold Response, inclusive. At or above means TRUE; below means FALSE.

1) O=C(CCOCCOCCOCCOCCNC(=O)CCc1ccc2n1[B-](F)(F)[N+]1=C(c3ccc[nH]3)C=CC1=C2)NCCCN1CCN(C2=Nc3ccccc3Oc3ccc(Cl)cc32)CC1; TRUE
2) CC(C)N(CC[C@H](c1ccccc1)c1cc(CCNC(=O)c2ccc(CNC(=O)CCc3ccc4n3[B-](F)(F)[N+]3=C(c5ccc[nH]5)C=CC3=C4)cc2)ccc1O)C(C)C; TRUE
3) COc1ccccc1N1CCN(CCCCN2C(=O)c3ccc(CNC(=O)CCOCCNC(=O)c4ccc(CNC(=O)CCc5ccc6n5[B-](F)(F)[N+]5=C(c7ccc[nH]7)C=CC5=C6)cc4)cc3C2=O)CC1; TRUE
4) O=C(CCc1ccc2n1[B-](F)(F)[N+]1=C(c3ccc[nH]3)C=CC1=C2)NCCOCCOCCNC(=O)OCCOCCN1CCN(C2=Nc3ccccc3Sc3ccccc32)CC1; FALSE

Would you kindly look at the next entry?
Is NanoBRET Fold Response for CCCn1c(=O)c2[nH]c(-c3ccc(OCC(=O)NCCNC(=O)CCOCCNC(=O)c4ccc(CNC(=O)CCc5ccc6n5[B-](F)(F)[N+]5=C(c7ccc[nH]7)C=CC5=C6)cc4)cc3)nc2n(CCC)c1=O at or above 1? FALSE

* * *

# Target Entity: RXFP1 (Homo sapiens, UniProt Q9HBX9)
# Construct: purchased Promega (in-house HiBiT-GPCR construct library, NanoBRET)
# Sequence (Q9HBX9 whole entry): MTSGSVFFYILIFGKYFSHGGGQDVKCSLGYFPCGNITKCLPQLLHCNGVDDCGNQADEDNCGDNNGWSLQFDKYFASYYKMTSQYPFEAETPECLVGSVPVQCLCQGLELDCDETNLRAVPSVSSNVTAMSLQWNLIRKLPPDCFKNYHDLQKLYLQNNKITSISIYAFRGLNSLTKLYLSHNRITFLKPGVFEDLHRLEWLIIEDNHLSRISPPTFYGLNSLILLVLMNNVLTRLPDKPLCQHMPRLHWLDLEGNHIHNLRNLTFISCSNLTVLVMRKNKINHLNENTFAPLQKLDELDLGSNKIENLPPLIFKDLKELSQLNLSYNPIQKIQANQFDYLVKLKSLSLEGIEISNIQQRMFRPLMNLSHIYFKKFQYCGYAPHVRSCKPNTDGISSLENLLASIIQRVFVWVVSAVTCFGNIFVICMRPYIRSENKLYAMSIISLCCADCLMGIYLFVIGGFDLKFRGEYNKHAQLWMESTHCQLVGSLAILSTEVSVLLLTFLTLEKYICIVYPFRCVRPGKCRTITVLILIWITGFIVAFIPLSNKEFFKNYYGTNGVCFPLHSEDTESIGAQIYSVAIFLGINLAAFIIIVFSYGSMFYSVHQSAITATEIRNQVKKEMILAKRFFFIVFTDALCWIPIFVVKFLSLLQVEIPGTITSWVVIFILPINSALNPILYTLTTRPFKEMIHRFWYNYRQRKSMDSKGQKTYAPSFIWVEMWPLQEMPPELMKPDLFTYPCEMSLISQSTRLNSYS
# Protocol Text: NanoBRET screen HiBiT-RXFP1 in HEK293
# Format: binding
# Cond: RXFP1; tracer 0.1μM
Label key: true (1) means NanoBRET Fold Response under 1; false (0) means NanoBRET Fold Response of 1 or more.

1) O=C(CCc1ccc2n1[B-](F)(F)[N+]1=C(c3ccc[nH]3)C=CC1=C2)NCCOCCOCCNC(=O)OCCOCCN1CCN(C2=Nc3ccccc3Sc3ccccc32)CC1; true (1)
2) CC(C)N(CC[C@H](c1ccccc1)c1cc(CCNC(=O)c2ccc(CNC(=O)CCc3ccc4n3[B-](F)(F)[N+]3=C(c5ccc[nH]5)C=CC3=C4)cc2)ccc1O)C(C)C; false (0)
3) Cc1nc2n(c(=O)c1CCN1CCC(c3noc4cc(F)ccc34)CC1)CCCC2OC(=O)NCCOCCOCCOCCOCCNC(=O)CCc1ccc2n1[B-](F)(F)[N+]1=C(c3ccc[nH]3)C=CC1=C2 (stereo not drawn); false (0)
4) N#CN=C(NCCCOc1cccc(CN2CCCCC2)c1)NCCNC(=O)CCOCCOCCOCCOCCNC(=O)CCc1ccc2n1[B-](F)(F)[N+]1=C(c3ccc[nH]3)C=CC1=C2; true (1)
5) O=C(CCOCCOCCOCCOCCNC(=O)CCc1ccc2n1[B-](F)(F)[N+]1=C(c3ccc[nH]3)C=CC1=C2)NCCCN1CCN(C2=Nc3ccccc3Oc3ccc(Cl)cc32)CC1; true (1)

Decide: NanoBRET Fold Response of CCCn1c(=O)c2[nH]c(-c3ccc(OCC(=O)NCCNC(=O)CCOCCNC(=O)c4ccc(CNC(=O)CCc5ccc6n5[B-](F)(F)[N+]5=C(c7ccc[nH]7)C=CC5=C6)cc4)cc3)nc2n(CCC)c1=O strictly below 1? false (0)

* * *

# Target Entity: PDGFRB (Homo sapiens)
# Construct: purchased Promega (in-house HiBiT-GPCR construct library, NanoBRET)
# Sequence (P09619 33-1106): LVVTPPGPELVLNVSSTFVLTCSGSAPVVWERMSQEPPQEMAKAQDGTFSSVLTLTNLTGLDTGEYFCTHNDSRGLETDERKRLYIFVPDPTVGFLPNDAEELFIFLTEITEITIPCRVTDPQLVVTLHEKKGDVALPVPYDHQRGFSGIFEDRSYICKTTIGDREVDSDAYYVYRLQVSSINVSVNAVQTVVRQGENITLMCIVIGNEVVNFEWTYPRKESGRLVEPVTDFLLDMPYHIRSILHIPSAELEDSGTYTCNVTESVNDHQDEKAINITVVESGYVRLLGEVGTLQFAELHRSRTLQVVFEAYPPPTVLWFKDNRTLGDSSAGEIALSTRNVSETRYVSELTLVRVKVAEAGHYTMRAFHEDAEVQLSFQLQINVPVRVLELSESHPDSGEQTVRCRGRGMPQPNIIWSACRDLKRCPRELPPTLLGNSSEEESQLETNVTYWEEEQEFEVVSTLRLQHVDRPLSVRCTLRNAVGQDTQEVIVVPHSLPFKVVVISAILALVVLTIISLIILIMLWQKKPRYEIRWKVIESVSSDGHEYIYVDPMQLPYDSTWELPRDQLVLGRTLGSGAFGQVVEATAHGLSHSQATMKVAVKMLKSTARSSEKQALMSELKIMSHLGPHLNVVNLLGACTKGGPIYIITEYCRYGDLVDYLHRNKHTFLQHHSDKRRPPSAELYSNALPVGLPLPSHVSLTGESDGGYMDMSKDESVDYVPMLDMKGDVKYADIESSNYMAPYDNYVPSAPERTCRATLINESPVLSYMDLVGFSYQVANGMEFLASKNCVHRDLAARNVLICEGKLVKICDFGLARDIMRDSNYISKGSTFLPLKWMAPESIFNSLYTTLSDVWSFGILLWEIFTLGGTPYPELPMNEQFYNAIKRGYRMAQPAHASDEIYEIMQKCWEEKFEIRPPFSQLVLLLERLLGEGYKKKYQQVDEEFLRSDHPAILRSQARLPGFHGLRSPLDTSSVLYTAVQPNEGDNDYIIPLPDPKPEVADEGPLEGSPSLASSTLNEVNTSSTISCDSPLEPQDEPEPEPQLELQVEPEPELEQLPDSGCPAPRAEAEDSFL
# Protocol Text: NanoBRET screen HiBiT-PDGFRB in HEK293
# Format: binding
# Cond: PDGFRB; tracer 1μM
Property: NanoBRET Fold Response
One number for each entry.

1. N#CN=C(NCCCOc1cccc(CN2CCCCC2)c1)NCCNC(=O)CCOCCOCCOCCOCCNC(=O)CCc1ccc2n1[B-](F)(F)[N+]1=C(c3ccc[nH]3)C=CC1=C2; 1.01
2. CC(C)N(CC[C@H](c1ccccc1)c1cc(CCNC(=O)c2ccc(CNC(=O)CCc3ccc4n3[B-](F)(F)[N+]3=C(c5ccc[nH]5)C=CC3=C4)cc2)ccc1O)C(C)C; 1.21

Now for the compound whose NanoBRET Fold Response we want.
For the record COc1ccccc1N1CCN(CCCCN2C(=O)c3ccc(CNC(=O)CCOCCOCCOCCOCCNC(=O)CCc4ccc5n4[B-](F)(F)[N+]4=C(c6ccc[nH]6)C=CC4=C5)cc3C2=O)CC1 , what value of NanoBRET Fold Response is listed for PDGFRB (Homo sapiens)? 1.00

* * *

# Target Entity: CXCR2 (Homo sapiens)
# Construct: purchased Promega (in-house HiBiT-GPCR construct library, NanoBRET)
# Sequence (P25025 whole entry): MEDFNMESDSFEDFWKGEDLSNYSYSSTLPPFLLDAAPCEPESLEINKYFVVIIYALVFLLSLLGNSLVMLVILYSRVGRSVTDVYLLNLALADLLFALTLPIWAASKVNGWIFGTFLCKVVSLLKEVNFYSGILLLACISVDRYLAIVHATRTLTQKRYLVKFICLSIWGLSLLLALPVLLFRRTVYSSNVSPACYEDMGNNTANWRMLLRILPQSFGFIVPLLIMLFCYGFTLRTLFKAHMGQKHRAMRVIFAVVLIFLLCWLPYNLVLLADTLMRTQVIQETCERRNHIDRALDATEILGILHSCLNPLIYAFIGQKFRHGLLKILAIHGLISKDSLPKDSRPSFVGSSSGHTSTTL
# Protocol Text: NanoBRET screen HiBiT-CXCR2 in HEK293
# Assay type: binding
# Cond: CXCR2; tracer 1μM
Property: NanoBRET Fold Response
Answers are plain numbers.

// solved cases for NanoBRET Fold Response follow
1) CC(C)N(CC[C@H](c1ccccc1)c1cc(CCNC(=O)CCOCCOCCOCCOCCNC(=O)CCc2ccc3n2[B-](F)(F)[N+]2=C(c4ccc[nH]4)C=CC2=C3)ccc1O)C(C)C; 0.98
2) COc1ccccc1N1CCN(CCCCN2C(=O)c3ccc(CNC(=O)CCOCCNC(=O)c4ccc(CNC(=O)CCc5ccc6n5[B-](F)(F)[N+]5=C(c7ccc[nH]7)C=CC5=C6)cc4)cc3C2=O)CC1; 0.86

# next molecule below
Query: NanoBRET Fold Response; subject: CCCn1c(=O)c2[nH]c(-c3ccc(OCC(=O)NCCNC(=O)CCOCCNC(=O)c4ccc(CNC(=O)CCc5ccc6n5[B-](F)(F)[N+]5=C(c7ccc[nH]7)C=CC5=C6)cc4)cc3)nc2n(CCC)c1=O 0.70

* * *

For each record, write down the corresponding NanoBRET Fold Response.
# Target Entity: FZD2 (Homo sapiens)
# Construct: purchased Promega (in-house HiBiT-GPCR construct library, NanoBRET)
# Sequence (Q14332 24-565): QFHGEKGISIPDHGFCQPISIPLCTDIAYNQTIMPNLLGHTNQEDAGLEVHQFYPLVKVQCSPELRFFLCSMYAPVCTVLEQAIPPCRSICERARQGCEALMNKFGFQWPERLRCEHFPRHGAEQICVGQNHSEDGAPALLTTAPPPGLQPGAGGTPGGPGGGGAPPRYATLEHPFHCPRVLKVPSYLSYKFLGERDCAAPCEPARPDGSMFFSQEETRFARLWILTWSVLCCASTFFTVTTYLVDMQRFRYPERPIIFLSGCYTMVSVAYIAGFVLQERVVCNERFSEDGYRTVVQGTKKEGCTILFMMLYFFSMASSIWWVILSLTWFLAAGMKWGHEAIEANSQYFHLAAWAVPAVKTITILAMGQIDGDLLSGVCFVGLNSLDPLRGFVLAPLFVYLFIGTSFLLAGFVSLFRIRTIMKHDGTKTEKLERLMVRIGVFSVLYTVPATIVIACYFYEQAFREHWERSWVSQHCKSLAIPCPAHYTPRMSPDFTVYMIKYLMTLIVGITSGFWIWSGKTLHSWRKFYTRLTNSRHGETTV
# Protocol Text: NanoBRET screen HiBiT-FZD2 in HEK293
# Assay type: binding
# Cond: FZD2; tracer 0.1μM
Answers are plain numbers.

Please review the following examples before continuing.
1. COc1ccccc1N1CCN(CCCCN2C(=O)c3ccc(CNC(=O)CCOCCNC(=O)c4ccc(CNC(=O)CCc5ccc6n5[B-](F)(F)[N+]5=C(c7ccc[nH]7)C=CC5=C6)cc4)cc3C2=O)CC1; 0.88
2. CC(C)N(CC[C@H](c1ccccc1)c1cc(CCNC(=O)c2ccc(CNC(=O)CCc3ccc4n3[B-](F)(F)[N+]3=C(c5ccc[nH]5)C=CC3=C4)cc2)ccc1O)C(C)C; 0.95

Turning now to a further compound:
What value of NanoBRET Fold Response has been reported for the following compound? O=C(CCOCCOCCOCCOCCNC(=O)CCc1ccc2n1[B-](F)(F)[N+]1=C(c3ccc[nH]3)C=CC1=C2)NCCCN1CCN(C2=Nc3ccccc3Oc3ccc(Cl)cc32)CC1 1.07

* * *

# Target Entity: NPBWR1 (Homo sapiens)
# Construct: purchased Promega (in-house HiBiT-GPCR construct library, NanoBRET)
# Sequence (P48145 whole entry): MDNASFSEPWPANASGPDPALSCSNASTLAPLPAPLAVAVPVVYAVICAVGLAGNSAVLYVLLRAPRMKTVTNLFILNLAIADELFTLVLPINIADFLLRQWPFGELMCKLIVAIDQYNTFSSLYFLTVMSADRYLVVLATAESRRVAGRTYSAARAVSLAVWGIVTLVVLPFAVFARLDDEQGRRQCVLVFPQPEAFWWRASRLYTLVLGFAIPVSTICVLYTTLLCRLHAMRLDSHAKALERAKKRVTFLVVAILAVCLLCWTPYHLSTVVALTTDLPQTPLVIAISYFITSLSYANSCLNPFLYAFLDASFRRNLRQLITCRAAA
# Protocol Text: NanoBRET screen HiBiT-NPBWR1 in HEK293
# Assay type: binding
# Cond: NPBWR1; tracer 1μM
# Method: Each tracer candidate was screened across the entire library of HiBiT-GPCR constructs using NanoBRET as the detection modality. As depicted in Figure 4A, the specificity of interactions was evaluated through decrease in BRET due to competitive displacement of a bound tracer by excess parental compound. Each tracer was analyzed for binding to each HiBiT-GPCR fusion in the absence and in the presence of competing parental compound. […]
Exercise: state measured NanoBRET Fold Response for each of the compounds provided.
One number for each entry.

Some entries whose results are on file:
1. CCCn1c(=O)c2[nH]c(-c3ccc(OCC(=O)NCCNC(=O)CCOCCNC(=O)c4ccc(CNC(=O)CCc5ccc6n5[B-](F)(F)[N+]5=C(c7ccc[nH]7)C=CC5=C6)cc4)cc3)nc2n(CCC)c1=O [XAC-3-NB590]; 0.96
2. Cc1nc2n(c(=O)c1CCN1CCC(c3noc4cc(F)ccc34)CC1)CCCC2OC(=O)NCCOCCOCCOCCOCCNC(=O)CCc1ccc2n1[B-](F)(F)[N+]1=C(c3ccc[nH]3)C=CC1=C2 (stereo not shown) [Risperidone-2-NB590]; 1.06
3. O=C(CCc1ccc2n1[B-](F)(F)[N+]1=C(c3ccc[nH]3)C=CC1=C2)NCc1ccc(C(=O)NCCOCCC(=O)N[C@@H]2CC[C@@]3(O)[C@H]4Cc5ccc(O)c6c5[C@@]3(CCN4CC3CC3)[C@H]2O6)cc1 [Naltrexone-3-NB590]; 1.19
4. N#CN=C(NCCCOc1cccc(CN2CCCCC2)c1)NCCNC(=O)CCOCCOCCOCCOCCNC(=O)CCc1ccc2n1[B-](F)(F)[N+]1=C(c3ccc[nH]3)C=CC1=C2 [Aminopotentidine-2-NB590]; 0.95

Would you mind giving NanoBRET Fold Response for every compound in the list below?
1. Cc1cc2c(s1)Nc1ccccc1N=C2N1CCN(CCCNC(=O)CCOCCOCCOCCOCCNC(=O)CCc2ccc3n2[B-](F)(F)[N+]2=C(c4ccc[nH]4)C=CC2=C3)CC1 [Olanzapine-a-2-NB590]
2. CC(C)N(CC[C@H](c1ccccc1)c1cc(CCNC(=O)c2ccc(CNC(=O)CCc3ccc4n3[B-](F)(F)[N+]3=C(c5ccc[nH]5)C=CC3=C4)cc2)ccc1O)C(C)C [Tolterodine-BZ-NB590]
3. O=C(CCOCCOCCOCCOCCNC(=O)CCc1ccc2n1[B-](F)(F)[N+]1=C(c3ccc[nH]3)C=CC1=C2)NCCCN1CCN(C2=Nc3ccccc3Oc3ccc(Cl)cc32)CC1 [Loxapine-a-2-NB590]
4. COc1ccccc1N1CCN(CCCCN2C(=O)c3ccc(CNC(=O)CCOCCNC(=O)c4ccc(CNC(=O)CCc5ccc6n5[B-](F)(F)[N+]5=C(c7ccc[nH]7)C=CC5=C6)cc4)cc3C2=O)CC1 [NAN-190-3-NB590]
5. O=C(CCc1ccc2n1[B-](F)(F)[N+]1=C(c3ccc[nH]3)C=CC1=C2)NCCOCCOCCNC(=O)OCCOCCN1CCN(C2=Nc3ccccc3Sc3ccccc32)CC1 [Quetiapine-a-2-NB590]
6. CC(C)N(CC[C@H](c1ccccc1)c1cc(CCNC(=O)CCOCCOCCOCCOCCNC(=O)CCc2ccc3n2[B-](F)(F)[N+]2=C(c4ccc[nH]4)C=CC2=C3)ccc1O)C(C)C [Tolterodine-2-NB590]

[1.02, 1.01, 0.93, 0.91, 1.04, 0.94]

Ref: paper PMC8151276
